PROCEDURE_TEXT: Phase I first-in-human study: plasma and urine pharmacokinetics
Type: in vivo
COND: human, plasma, oral, 120 mg, t 1/2, MAD 120 mg once daily, fed, Day 1; mean (SD)
VALUE_KIND: half-life (h)
I only need the number, in h, no unit after it.

Given CC(=O)N[C@H]1CC[C@H](NC(=O)CN2CCN(c3nncc(-c4ccc(C)cc4)n3)CC2)CC1 [lorundrostat, Lorundrostat] , state its recorded half-life.
4.4

---

PROCEDURE_TEXT: Phase I first-in-human study: plasma and urine pharmacokinetics
Format: in vivo
COND: human, plasma, oral, 10 mg, t 1/2, SAD 10 mg single dose, fasted; mean (SD)
VALUE_KIND: half-life
The answer should read as a number with its unit following.

Reported half-life, compound CC(=O)N[C@H]1CC[C@H](NC(=O)CN2CCN(c3nncc(-c4ccc(C)cc4)n3)CC2)CC1 : ____
7.9 h
